System: MCF7 breast
Assay: NCI tumour cell line growth inhibition, 48 h
value.kind: TGI

The cases that follow already have their TGI on record.
[[record]]
compound = "OCCSCc1ccccc1"
measured_value = "> 100 µM"

[[record]]
compound = "O=C(Nc1c[nH]c(=O)[nH]c1=O)C(Cl)Cl"
measured_value = "> 100 µM"

[[record]]
compound = "CC(C)c1ccc(/C(C(=O)O)=C(\\O)C(=O)O)cc1"
measured_value = "> 100 µM"

[[record]]
compound = "CCC1C(c2cccc(OC)c2O)c2cc3c(cc2OC1N1CCCC1)OCO3 (stereo not given)"
measured_value = "> 100 µM"

[[record]]
compound = "Cc1ccc(N=Nc2c(O)ccc3cc(S(=O)(=O)O)ccc23)c(C)c1"
measured_value = "> 100 µM"

[[record]]
compound = "COc1cc2c(c(OC)c1OC)-c1ccc(SC)c(=O)cc1[C@@H](OC(C)=O)CC2"
measured_value = "> 100 µM"

[[record]]
compound = "O=c1[nH]nc(-c2ccccc2)n1/N=C/c1ccncc1"
measured_value = "> 100 µM"

[[record]]
compound = "CCN(CC)CCCOC(=O)/C=C/c1c(C)[nH]c(=O)[nH]c1=O"
measured_value = "> 625 µM"

[[record]]
compound = "CNc1ccc(-c2nc3cc(C)ccc3o2)cc1"
measured_value = "> 100 µM"

[[record]]
compound = "COC(=O)c1cc(NC(=O)c2cc(NC(=O)c3cc([N+](=O)[O-])cn3C)cn2C)cn1C"
measured_value = "> 100 µM"


Param readout = TGI; param system = MCF7 breast; param query = NNc1nc2ccccc2c(=O)n1NC(=O)C(=O)Nc1cccc(C(F)(F)F)c1 ; response: value
> 100 µM

---

Tested on: BT-549 breast
Answer with one of the outcomes given here: label 1 = active, label 0 = inactive

// outcome(item) with item = Cc1cc(C)c(C[N+](C)(C)C)c(C)c1C
label 0

Repeat with O=S(=O)(NCC1CCC(CNc2ccc(Cl)cc2)CC1)c1ccc(-c2ccccc2)cc1 (stereo unspecified)
label 0

Repeat with CC[C@@]1(O)C(=O)NCc2c1cc1n(c2=O)Cc2cc3c(N)cccc3nc2-1
label 0

Repeat with CCN1C(=S)N(CC)C2C1NC(=S)N2/N=C/C=C/c1ccccc1 (stereo unspecified)
label 0

Repeat with COc1cc2c3c(c1)c1cc(OC)c(OC)cc1c[n+]3CC2
label 0

Repeat with O=C(NCCCNc1cc(-c2cn(-c3ccccc3)nc2-c2cccc(O)c2)ccn1)c1ccccc1
label 0

---

The entries below are paired with their reported TGI.
Tested on: TK-10 renal
Assay: NCI tumour cell line growth inhibition, 48 h

The cases that follow already have their TGI on record.
[[record]]
compound = "NNc1nc2ccccc2c(=O)n1NC(=O)C(=O)Nc1cccc(C(F)(F)F)c1"
value_kind = "TGI"
measured_value = "> 100 µM"

[[record]]
compound = "COc1cc2noc(-c3ccccc3)c2cc1OC"
value_kind = "TGI"
measured_value = "> 100 µM"

[[record]]
compound = "NNc1cccc(/C=C/c2ccccc2)cc1=O"
value_kind = "TGI"
measured_value = "> 100 µM"

[[record]]
compound = "CC(=O)N1CCc2c([nH]c3ccc(Br)cc23)C1c1ccccc1 (stereo not given)"
value_kind = "TGI"
measured_value = "> 10 µM"


Okay, next one:
Param readout = TGI; param system = TK-10 renal; param query = C[C@]1(CO)[C@H]2CC[C@@]34C=C[C@@](CO)(CC[C@H]3[C@]2(C)CC[C@H]1O)C4 ; response: value
> 100 µM
